- measured-on: Estrogen receptor (Homo sapiens) (UniProt P03372)
- Sequence (whole entry): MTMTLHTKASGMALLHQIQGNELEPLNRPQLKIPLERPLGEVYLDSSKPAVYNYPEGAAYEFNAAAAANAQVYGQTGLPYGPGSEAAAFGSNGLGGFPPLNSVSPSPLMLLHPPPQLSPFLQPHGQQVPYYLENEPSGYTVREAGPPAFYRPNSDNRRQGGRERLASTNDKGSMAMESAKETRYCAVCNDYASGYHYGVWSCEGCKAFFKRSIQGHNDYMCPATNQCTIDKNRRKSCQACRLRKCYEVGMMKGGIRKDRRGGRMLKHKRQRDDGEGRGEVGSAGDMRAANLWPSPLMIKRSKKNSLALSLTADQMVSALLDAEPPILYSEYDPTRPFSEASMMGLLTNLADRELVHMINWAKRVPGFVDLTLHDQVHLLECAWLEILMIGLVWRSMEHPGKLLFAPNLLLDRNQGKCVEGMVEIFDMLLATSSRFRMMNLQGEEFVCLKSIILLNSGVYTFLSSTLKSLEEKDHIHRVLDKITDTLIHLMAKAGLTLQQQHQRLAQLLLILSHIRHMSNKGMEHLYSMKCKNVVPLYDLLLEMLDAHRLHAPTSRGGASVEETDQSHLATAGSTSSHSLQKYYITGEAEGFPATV
- assay-info: Competitive inhibition of ER-alpha (unknown origin)-GRIP1 interaction expressed in human HepG2 cells assessed as change in reporter gene activity after 40 hrs in presence of estradiol relative to control
- Format: cell-based
- Set-up: concentration or dose not given beside the values
observable: Activity

Summary for this compound, CCOC(=O)COc1ccc(-c2ccc(O)c(Cc3ccc4ccccc4c3)c2)cc1 : Activity is < 20%

Summary for this compound, CCOC(=O)COc1ccc(-c2ccc(OCCN(C)C)cc2)cc1Cc1ccc(-c2ccccc2)cc1 : Activity is < 20%

Summary for this compound, CCOC(=O)COc1ccc(-c2ccc(O)c(CC3CCCCC3)c2)cc1CC1CCCCC1 : Activity is < 20%

More entries:
Summary for this compound, CCCCCCCc1cc(-c2ccc(OCC(=O)OCC)c(CCCCCCC)c2)ccc1O : Activity is < 20%

Summary for this compound, CCCCCCCc1cc(-c2ccc(O)cc2)ccc1OCC(=O)OCC : Activity is < 20%

Summary for this compound, CCOC(=O)COc1ccc(-c2ccc(OCCN(C)C)c(Cc3ccc4ccccc4c3)c2)cc1Cc1ccc2ccccc2c1 : Activity is < 20%

Summary for this compound, CCCCCCCc1cc(-c2ccc(OCC(=O)OCC)cc2)ccc1O : Activity is < 20%

Summary for this compound, CCOC(=O)COc1ccc(-c2ccc(OCCN(C)C)c(Cc3ccc(-c4ccccc4)cc3)c2)cc1Cc1ccc(-c2ccccc2)cc1 : Activity is < 20%

Summary for this compound, CCCCCCCc1cc(-c2ccc(OCC(=O)OCC)c(CCCCCCC)c2)ccc1OCCN(C)C : Activity is < 20%

Summary for this compound, CCOC(=O)COc1ccc(-c2ccc(O)cc2)cc1CC1CCCCC1 : Activity is < 20%
